- MEASUREMENT_TARGET: human ether-à-go-go-related gene (hERG) potassium channel (human, UniProt Q12809);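 also: peak tail current of the secondary pulse compared with the same well before compound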
- Sequence (Q12809 whole entry, looked up): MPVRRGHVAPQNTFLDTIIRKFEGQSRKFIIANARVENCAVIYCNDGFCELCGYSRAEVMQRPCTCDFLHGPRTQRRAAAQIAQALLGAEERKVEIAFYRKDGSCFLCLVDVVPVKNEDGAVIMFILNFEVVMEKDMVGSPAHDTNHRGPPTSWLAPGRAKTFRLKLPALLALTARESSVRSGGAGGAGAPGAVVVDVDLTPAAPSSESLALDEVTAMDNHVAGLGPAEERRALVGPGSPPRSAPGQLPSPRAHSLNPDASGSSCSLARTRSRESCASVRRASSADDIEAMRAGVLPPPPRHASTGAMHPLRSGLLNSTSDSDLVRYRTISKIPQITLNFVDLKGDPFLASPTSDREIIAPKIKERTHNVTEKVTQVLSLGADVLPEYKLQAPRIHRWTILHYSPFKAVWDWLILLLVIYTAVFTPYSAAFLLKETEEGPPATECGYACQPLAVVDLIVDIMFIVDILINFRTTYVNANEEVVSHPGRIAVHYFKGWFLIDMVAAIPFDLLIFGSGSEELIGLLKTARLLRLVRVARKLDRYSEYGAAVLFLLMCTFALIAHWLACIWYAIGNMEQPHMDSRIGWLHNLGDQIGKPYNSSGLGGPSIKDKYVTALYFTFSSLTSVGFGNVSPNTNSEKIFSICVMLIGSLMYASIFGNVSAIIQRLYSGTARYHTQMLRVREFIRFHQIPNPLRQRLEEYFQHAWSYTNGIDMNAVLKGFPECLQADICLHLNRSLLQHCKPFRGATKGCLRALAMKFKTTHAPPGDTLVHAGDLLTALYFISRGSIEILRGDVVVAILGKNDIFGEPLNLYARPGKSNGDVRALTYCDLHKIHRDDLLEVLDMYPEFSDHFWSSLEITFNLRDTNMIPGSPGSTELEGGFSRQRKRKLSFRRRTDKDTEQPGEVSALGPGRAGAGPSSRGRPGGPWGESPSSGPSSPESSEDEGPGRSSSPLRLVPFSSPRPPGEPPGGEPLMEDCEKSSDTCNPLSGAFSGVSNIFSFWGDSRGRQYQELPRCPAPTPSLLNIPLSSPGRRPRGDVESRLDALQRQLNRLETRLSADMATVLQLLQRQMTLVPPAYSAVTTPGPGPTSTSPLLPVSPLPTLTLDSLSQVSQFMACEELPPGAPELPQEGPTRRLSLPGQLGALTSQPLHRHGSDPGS
- METHOD_DESCRIPTION: primary screen, population patch clamp on CHO cells stably expressing hERG; higher = less effect of the substance
- Method: Briefly, Chinese hamster ovary (CHO) cells stably expressing the hERG channel were dislodged from tissue culture flasks and dispensed into PPC plates. […] During the recording, background leak currents were estimated by a 100 ms step to -80 mV from an initial holding potential of -70 mV and subtracted from the subsequent current measurement. The campaign was conducted in two phases using slight differences in recording protocol. […]
Among all 310,000 compounds or so, about 14,000 (4.5%) showed an effect of 50% or more. The effect is printed as a negative number. The sample holds strong results, similar compounds and a random draw of the others, so the mix is not that of the screen.
RESULT_TYPE: hERG current change (%, negative = inhibition) at 10uM (%)
Respond numerically; units are % and should not be typed.

Return reported hERG current change (%, negative = inhibition) at 10uM. Input compound: `N=c1c2c(-c3ccccc3)c(-c3ccccc3)n(Cc3ccccc3)c2ncn1CCCn1ccnc1`
-71.2

Dear colleague, please send me the reported hERG current change (%, negative = inhibition) at 10uM for `Cc1c(-n2c(SCC(C)C)nc3ccccc3c2=O)c(=O)n(-c2ccccc2)n1C` when you can.
0.437

Given CNC1=CC(=O)CC(c2ccccc2)C1 (stereo not drawn) , respond with its hERG current change (%, negative = inhibition) at 10uM.
-1.58

Determine from records and report hERG current change (%, negative = inhibition) at 10uM for `COc1cnc(-c2ccccc2)nc1Oc1ccccc1C`
-4.2

Give the measured hERG current change (%, negative = inhibition) at 10uM for CC(N)Cc1ccccc1Sc1ccc(O)cc1.O=C(O)C(=O)O (stereo not drawn)
-35.5

Identify measured hERG current change (%, negative = inhibition) at 10uM associated with `CN1CCC(OC(=O)COc2ccccc2)CC1.Cl`
15.1

Answer with reported hERG current change (%, negative = inhibition) at 10uM of `O=C1CC2(CCN(C(=O)COc3ccc(F)cc3)CC2)Oc2ccccc21`
-42.6

Hello, please tell me recorded hERG current change (%, negative = inhibition) at 10uM for this one: `CCOc1ccc(NC(=O)N2C[C@H]3C[C@@H](C2)c2cccc(=O)n2C3)cc1`
8.54

====

- MEASUREMENT_TARGET: human ether-à-go-go-related gene (hERG) potassium channel (human, UniProt Q12809);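 also: peak tail current of the secondary pulse compared with the same well before compound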
- METHOD_DESCRIPTION: primary screen, population patch clamp on CHO cells stably expressing hERG; higher = less effect of the substance
In all, about 310,000 compounds went through this assay and about 14,000 (4.5%) showed an effect of 50% or more. Effects have a minus sign here. The full list was thinned out, with strong results kept by preference.
Classify as follows. Reported hERG current change (%, negative = inhibition) at 10uM greater than or equal to -30%: 1. Reported hERG current change (%, negative = inhibition) at 10uM below: -1.

CCOC(=O)c1ccc(NC(=O)CCc2nc(-c3ccc(C)cc3)no2)cc1 :: 1

Hi team, for N=c1c2c(ncn1Cc1ccco1)Oc1c(ccc3ccccc13)C2c1ccccc1 (stereo not shown) , is the recorded hERG current change (%, negative = inhibition) at 10uM at or above -30%?
1

====

- MEASUREMENT_TARGET: human ether-à-go-go-related gene (hERG) potassium channel (human, UniProt Q12809);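 also: peak tail current of the secondary pulse compared with the same well before compound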
- METHOD_DESCRIPTION: primary screen, population patch clamp on CHO cells stably expressing hERG; higher = less effect of the substance
The campaign covered roughly 310,000 compounds. About 14,000 (4.5%) showed an effect of 50% or more. The effect is printed as a negative number. Shown is part of a subset that was picked to be rich in strong results.
RESULT_TYPE: hERG current change (%, negative = inhibition) at 10uM

Examples from the recorded data:
CCOC(=O)N1CCC(NC(=O)c2ccc3c(=O)n4c(nc3c2)CCCC4)CC1 :: 12%
O=C(NC1CCCCCC1)c1ccc2c(=O)n3c(nc2c1)CCCCC3 :: -51%

Output measured hERG current change (%, negative = inhibition) at 10uM for this item: `Cl.Clc1c(OCCCn2ccnc2)ccc2ccccc12`
-31.9%
